Target: p38α (Homo sapiens, UniProt Q16539)
Sequence (Q16539 whole entry): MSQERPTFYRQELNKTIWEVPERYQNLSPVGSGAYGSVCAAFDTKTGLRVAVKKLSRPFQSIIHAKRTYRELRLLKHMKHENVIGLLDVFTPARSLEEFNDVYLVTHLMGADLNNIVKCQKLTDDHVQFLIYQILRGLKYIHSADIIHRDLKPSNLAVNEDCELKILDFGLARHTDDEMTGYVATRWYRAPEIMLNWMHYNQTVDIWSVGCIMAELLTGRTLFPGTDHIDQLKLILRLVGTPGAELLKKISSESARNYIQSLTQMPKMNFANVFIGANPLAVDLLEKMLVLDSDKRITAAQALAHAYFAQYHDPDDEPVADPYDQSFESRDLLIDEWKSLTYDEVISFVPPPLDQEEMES
Experiment: p38α inhibition IC50
Format: biochemical
Conditions: Table 6; read-out: IC50 p38α
measurementType: pIC50
// scale note: pIC50 = -log10(conc_M); give the bare number

1) Fc1ccc(-c2nc3ccc(N4CCOCC4)nn3c2-c2ccncc2)cc1 [Nr. 23]    5.90
2) Fc1ccc(-c2nc3ccc(N4CCNCC4)nn3c2-c2ccnnc2)cc1 [Nr. 22]    6.39
3) Fc1ccc(-c2nc3ccc(N4CCNCC4)nn3c2-c2ccncc2)cc1 [Nr. 8]    7.82

Any idea what its pIC50 is? The compound is OCCC#Cc1nc(-c2ccc(F)cc2)c(-c2ccncc2)n1CCCc1ccccc1 [RWJ 67657, reference compound] 7.80

Which pIC50 value is on record for CN1CCN(c2ccc3nc(-c4ccc(F)cc4)c(-c4ccncc4)n3n2)CC1 [Nr. 2] ? 7.64

Request the reported pIC50 associated with Fc1ccc(-c2nn(CC(F)(F)F)cc2-c2ccnc3[nH]ccc23)cc1 [Nr. 20] 7.30

What measured pIC50 goes with Fc1ccc(-c2nc3ccc(N4CCC(N5CCCC5)CC4)nn3c2-c2ccncc2)cc1 [Nr. 14] ? 7.38

I have this compound here, Cn1cc(-c2ccncc2)c(-c2ccc(F)cc2)n1 [Nr. 17] , and I need its recorded pIC50. 7.20
